Values compiled from ChEMBL document CHEMBL3507680.

Test: Human HepG2 cell viability assay in 384 well format
Type: toxicity, cell-based
Design: dose 125 nL, time 70.5 hour; concentration not given beside the values
Settings: HepG2 cells, read-out: Inhibition
QUANTITY_KIND: cytotoxicity at 70.5 h (%)
Answers are plain numbers, in %.

As a guide, the following entries are already answered.
Cn1nc(-c2ccccc2)c(Cl)c1C(=O)O; -25.8
CC(=O)c1ccc(-n2ccc3nc(N4CCCC4)ncc3c2=O)cc1; -5.08
CCc1cnc(CN(C)C2CCN(c3sccc3C#N)C2=O)s1 (stereo not drawn); 13.4

For every item below, please supply its cytotoxicity at 70.5 h.
1. CCCC(NC(=O)c1cnccn1)c1nnc2ccccn12 (stereo not drawn)
2. OC1CCN(c2ccnc3c(F)cc(Br)cc23)CC1
3. CN(c1ncc(C(=O)Nc2ccccc2)c(N)n1)C1CCCCC1
4. CC(C)=CCN1C[C@H]2CC[C@@H]1CN(C(=O)Cn1c(C)cc(C)nc1=O)C2

Response:
1. -11
2. 16.9
3. -0.75
4. -4.66

For every item below, please supply its cytotoxicity at 70.5 h.
1. Cc1cc(N2CCN3CCCCC3C2)n2nc(C)c(C)c2n1 (stereo not drawn)
2. Cc1ncncc1C(=O)N1CCCC(Cc2nccs2)C1 (stereo not drawn)
3. CCS(=O)(=O)NCC(=O)NC(c1cc(C)sc1C)C(C)C (stereo not drawn)
4. Cc1ccc([C@@H]2CN(C(=O)c3cccnn3)C[C@H]2NC(=O)C2CC2)cc1
5. CN1CCN(C(=O)[C@H]2C[C@@H]3CN(c4ncc(F)cn4)C[C@@H]3N2C)CC1
6. Cn1ccnc1-c1ccc(NC[C@H]2CCc3ccccc3O2)nn1
7. CNC(=O)c1nc(CN2CCOC(CCCC(C)C)C2)no1 (stereo not drawn)
8. CSCCC1c2nc[nH]c2CCN1Cc1[nH]c2ccc(F)cc2c1C (stereo not drawn)

Response:
1.57
-4.31
-0.761
-8.66
-8.27
18
-16.2
10.9

---

Experiment: Human HepG2 cell viability assay in 384 well format
Assay type: toxicity, cell-based
Design: dose 125 nL, time 70.5 hour; concentration not given beside the values
Settings: HepG2 cells, read-out: Inhibition
Exercise: state measured cytotoxicity at 70.5 h for each of the compounds provided.
One number for each entry, in %.

Cc1cc(C)n(C2CCCN(C(=O)CCNc3ncccn3)C2)n1 (centres undefined); -2.87
c1cncc(CN2CCc3c(CNc4nccs4)n[nH]c3C2)c1; -25
Cc1cccc(OCCNC(=O)CN2CCCC2c2noc(C)n2)c1 (centres undefined); -4.91
CN(C)C(=O)c1ccccc1NCCCOc1cccc(C#N)c1; 13.1

For every item below, please supply its cytotoxicity at 70.5 h.
1. COc1cccc(CCC(=O)N2CCCC(n3cc(C)cn3)C2)c1 (centres undefined)
2. Cc1nnc(N2C[C@@H]3CCCO[C@@H]3[C@H](N(C)C)C2)s1
3. Cn1cc(CN2CCC3(CCCN(Cc4ccccn4)C3)CC2)cn1
4. CNC(=O)CC1CC2(CCN(Cc3nccs3)CC2)c2ccccc21 (centres undefined)
5. O=C(NCCNC(=O)C1Cc2cc(F)ccc2O1)C1CCCCC1 (centres undefined)
6. O=C(c1cccs1)N1CCC2(CC1)CN(c1ccsc1)C(=O)CO2

Response:
1. -15.8
2. 26.3
3. -5.87
4. 0.687
5. -9.82
6. -8.69

For every item below, please supply its cytotoxicity at 70.5 h.
1. CCC(NC(=O)C1CCN(S(C)(=O)=O)CC1)c1ccc(C)c(C)c1 (centres undefined)
2. Cc1cnn(CC(C)NCc2nc(-c3ccco3)no2)c1 (centres undefined)

Response:
1. -4.17
2. 2.25

For every item below, please supply its cytotoxicity at 70.5 h.
1. O=C(Nc1ccccc1)C1=NOC2(CCCN(C(=O)C3CCCC3)C2)C1 (centres undefined)
2. CCOCC(O)CN1CCN(C(=O)c2ccncc2)CC1 (centres undefined)
3. N#Cc1ccc(N2CCC3(CC2)CC(N2CCOCC2)CO3)cc1 (centres undefined)
4. O=C1CC(c2ccc3c(c2)OCO3)c2cnn(C3CCCC3)c2N1 (centres undefined)
5. CC(C)n1nc(CN2CCCC2=O)c2c1CN(C(=O)c1ccc[nH]1)C2
6. Cc1cnn(C2CN(Cc3nc(-c4ccccn4)no3)C2)c1
7. Cn1cc(CNCCc2cccnc2)c(-c2cccnc2)n1
8. CC1CCCN(C(=O)c2cc(-c3ccco3)cs2)C1 (centres undefined)

Response:
[-1.79, -3.55, -6.28, -15.7, -5.63, 12.3, 22.8, -14.8]
